Experiment: Intravenous bolus pharmacokinetics
Format: in vivo
Details: in vivo; Dog, single IV bolus, 0.5 mg/kg nominal
recorded.endpoint: half-life
Write your answer as a measured quantity: the number, then the unit.

Q: For Cc1cc(-c2cncc([C@@H](O)C(F)(F)F)c2)nc2c1C(=O)N(c1cnn(CC(F)F)c1)C2(C)C [Compound 1] , write its half-life.
Ans: 10.7 h

----------
Molecular target: P-gp (MDR1) (Homo sapiens)
Construct: expressed in transfected cells; host or cells: MDCK (Madin-Darby canine kidney) cells, MDCK-MDR1
Sequence (P08183 whole entry): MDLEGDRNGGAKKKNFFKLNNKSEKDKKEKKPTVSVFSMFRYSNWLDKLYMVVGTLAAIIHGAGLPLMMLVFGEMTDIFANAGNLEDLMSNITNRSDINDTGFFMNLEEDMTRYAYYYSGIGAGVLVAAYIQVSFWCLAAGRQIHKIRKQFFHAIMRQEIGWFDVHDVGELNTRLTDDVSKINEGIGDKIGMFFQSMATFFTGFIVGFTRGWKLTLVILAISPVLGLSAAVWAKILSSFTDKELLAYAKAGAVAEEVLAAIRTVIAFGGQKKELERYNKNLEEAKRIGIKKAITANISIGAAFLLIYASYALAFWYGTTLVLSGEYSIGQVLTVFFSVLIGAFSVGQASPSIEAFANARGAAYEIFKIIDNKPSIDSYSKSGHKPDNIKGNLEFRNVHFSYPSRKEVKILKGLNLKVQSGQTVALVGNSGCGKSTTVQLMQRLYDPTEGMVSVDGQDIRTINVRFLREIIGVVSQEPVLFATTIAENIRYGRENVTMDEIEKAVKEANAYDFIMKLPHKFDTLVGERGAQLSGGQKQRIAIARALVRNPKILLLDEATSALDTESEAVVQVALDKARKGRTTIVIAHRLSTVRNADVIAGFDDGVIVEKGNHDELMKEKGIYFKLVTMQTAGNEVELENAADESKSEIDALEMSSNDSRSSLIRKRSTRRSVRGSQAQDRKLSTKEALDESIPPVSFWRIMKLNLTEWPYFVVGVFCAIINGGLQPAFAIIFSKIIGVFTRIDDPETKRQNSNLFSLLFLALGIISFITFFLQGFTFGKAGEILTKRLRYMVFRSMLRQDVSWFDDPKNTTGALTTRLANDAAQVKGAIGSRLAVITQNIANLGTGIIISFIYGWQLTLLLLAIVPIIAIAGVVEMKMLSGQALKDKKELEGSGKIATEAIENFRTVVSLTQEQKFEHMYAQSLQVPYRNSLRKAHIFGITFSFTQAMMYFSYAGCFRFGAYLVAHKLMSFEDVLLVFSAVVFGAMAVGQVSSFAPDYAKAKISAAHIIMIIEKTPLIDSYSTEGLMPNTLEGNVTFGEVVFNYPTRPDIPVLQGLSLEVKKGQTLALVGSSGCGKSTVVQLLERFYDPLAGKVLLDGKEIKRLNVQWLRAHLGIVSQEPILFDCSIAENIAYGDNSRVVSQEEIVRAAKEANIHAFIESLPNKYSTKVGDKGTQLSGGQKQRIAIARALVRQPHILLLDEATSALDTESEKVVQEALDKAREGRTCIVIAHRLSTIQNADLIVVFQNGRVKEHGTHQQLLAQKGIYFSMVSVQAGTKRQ
Test: Efflux in MDCK-MDR1 cell line
Type: in vitro ADME
Conditions: human, MDCK-MDR1, MDCK-MDR1, 1 μM, B > A
recorded.endpoint: recovery at 1 h, 1 μM
Write your answer as a measured quantity: the number, then the unit.

Q: Name the recorded recovery at 1 h, 1 μM of Cc1cc(-c2cncc([C@@H](O)C(F)(F)F)c2)nc2c1C(=O)N(c1cnn(CC(F)F)c1)C2(C)C , assay system P-gp (MDR1) (Homo sapiens).
Ans: 87%

----------
Assay: Intravenous bolus pharmacokinetics
Type: in vivo
Settings: in vivo; Dog, single IV bolus, 0.5 mg/kg nominal
recorded.endpoint: clearance (mL/min/kg)
Give the number; mL/min/kg is assumed, so skip it.

Q: For Cc1cc(-c2cncc([C@@H](O)C(F)(F)F)c2)nc2c1C(=O)N(c1cnn(CC(F)F)c1)C2(C)C , write its clearance.
Ans: 5.4

----------
Test: Tissue Distribution in Rats
Format: in vivo, rat
Settings: male, kidney; rat, 5 mg/kg oral, 7 hr post dose; read-out: Tissue to Plasma Ratio, Kidney
recorded.endpoint: Kp at 7 hr
// print number alone

Q: For Cc1cc(-c2cncc([C@@H](O)C(F)(F)F)c2)nc2c1C(=O)N(c1cnn(CC(F)F)c1)C2(C)C , write its Kp at 7 hr.
Ans: 2.16

----------
Assay: Intravenous bolus pharmacokinetics
Format: in vivo, Rat
Conditions: plasma; Rat, single IV bolus, 0.5 mg/kg nominal
recorded.endpoint: AUC(0-inf) (µg·h/mL)
Give the number; µg·h/mL is assumed, so skip it.

Q: For Cc1cc(-c2cncc([C@@H](O)C(F)(F)F)c2)nc2c1C(=O)N(c1cnn(CC(F)F)c1)C2(C)C , write its AUC(0-inf).
Ans: 3.1

----------
Experiment: Intravenous bolus pharmacokinetics
Type: in vivo, Rat
Conditions: rat, plasma; Intravenous bolus, 0.5 mg/kg nominal dose; read-out: Rat IV CL
recorded.endpoint: clearance (mL/min/kg)
Give the number; mL/min/kg is assumed, so skip it.

# compound, value.observed
data = [
    ("Cc1cc(-c2cncc(OCC(F)(F)F)c2)nc2c1C(=O)N(c1cnn(CC(F)F)c1)C2(C)C [D, reference compound]", 7),
    ("COc1cncc(-c2cc(C)c3c(n2)C(C)(C)N(c2cnn(CC(F)F)c2)C3=O)c1 [Compound A, reference compound]", 22),
]

Q: For CCOc1cncc(-c2cc(C)c3c(n2)C(C)(C)N(c2cnn(CC(F)F)c2)C3=O)c1 [B, reference compound] , write its clearance.
Ans: 22

Q: For Cc1cc(-c2cncc(OCC(F)F)c2)nc2c1C(=O)N(c1cnn(CC(F)F)c1)C2(C)C [C, reference compound] , write its clearance.
Ans: 11

----------
Test: Oral pharmacokinetics / bioavailability
Format: in vivo
Conditions: in vivo; Dog, single oral, 3 mg/kg nominal, spray-dried dispersion
From the text: The bioavailability in monkey (greater than 100%) may be explained by the tenfold difference between the IV and oral doses. Compound 1 was rapidly absorbed in all species, with maximum systemic concentration observed within approximately one to three hours of dosing.
recorded.endpoint: half-life (h)
Give the number; h is assumed, so skip it.

Q: For Cc1cc(-c2cncc([C@@H](O)C(F)(F)F)c2)nc2c1C(=O)N(c1cnn(CC(F)F)c1)C2(C)C , write its half-life.
Ans: 7.3

----------
Target: P-gp (MDR1) (Homo sapiens)
Construct: expressed in transfected cells; host or cells: MDCK (Madin-Darby canine kidney) cells, MDCK-MDR1
Assay: Efflux in MDCK-MDR1 cell line
Type: in vitro ADME
Details: human; MDCK-MDR1, 1 μM, B > A
recorded.endpoint: Papp B→A at 1 h, 1 μM (nm/s)
Give the number; nm/s is assumed, so skip it.

Q: For Cc1cc(-c2cncc([C@@H](O)C(F)(F)F)c2)nc2c1C(=O)N(c1cnn(CC(F)F)c1)C2(C)C [Compound 1] , write its Papp B→A at 1 h, 1 μM.
Ans: 343

----------
Biological target: pregnane-X receptor (PXR) (Homo sapiens, UniProt O75469)
Sequence (O75469 whole entry): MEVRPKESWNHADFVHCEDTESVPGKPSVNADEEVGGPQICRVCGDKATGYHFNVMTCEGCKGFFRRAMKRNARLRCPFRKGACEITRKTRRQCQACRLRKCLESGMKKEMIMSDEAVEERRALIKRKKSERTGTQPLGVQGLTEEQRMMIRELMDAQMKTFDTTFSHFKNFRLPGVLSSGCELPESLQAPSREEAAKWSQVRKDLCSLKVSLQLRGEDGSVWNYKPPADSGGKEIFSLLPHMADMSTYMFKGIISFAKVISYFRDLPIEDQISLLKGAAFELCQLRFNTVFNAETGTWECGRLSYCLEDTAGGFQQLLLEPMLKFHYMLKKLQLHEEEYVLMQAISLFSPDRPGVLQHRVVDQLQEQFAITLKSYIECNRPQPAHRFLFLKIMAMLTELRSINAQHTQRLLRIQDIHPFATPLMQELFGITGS
Experiment: PXR activation in DPX2 cells
Conditions: PXR activation
recorded.endpoint: EC50

Q: For Cc1cc(-c2cncc([C@@H](O)C(F)(F)F)c2)nc2c1C(=O)N(c1cnn(CC(F)F)c1)C2(C)C , write its EC50.
Ans: > 30 µM

----------
Experiment: Oral pharmacokinetics / bioavailability
Assay type: in vivo
Details: in vivo; Monkey, single oral, 5 mg/kg nominal, spray-dried dispersion
recorded.endpoint: Tmax (h)
Give the number; h is assumed, so skip it.

Q: For Cc1cc(-c2cncc([C@@H](O)C(F)(F)F)c2)nc2c1C(=O)N(c1cnn(CC(F)F)c1)C2(C)C , write its Tmax.
Ans: 1.67

----------
Assay: Tissue Distribution in Rats
Type: in vivo, rat
Details: male, spleen; rat, 5 mg/kg oral, 0.5 hr post dose; read-out: Tissue to Plasma Ratio, Spleen
recorded.endpoint: Kp at 0.5 h
// print number alone

Q: For Cc1cc(-c2cncc([C@@H](O)C(F)(F)F)c2)nc2c1C(=O)N(c1cnn(CC(F)F)c1)C2(C)C , write its Kp at 0.5 h.
Ans: 0.74

----------
Test: Intravenous bolus pharmacokinetics
Assay type: in vivo
Details: in vivo; Mouse, single IV bolus, 0.45 mg/kg nominal; read-out: Vss
recorded.endpoint: Vd (L/kg)
Give the number; L/kg is assumed, so skip it.

Q: For Cc1cc(-c2cncc([C@@H](O)C(F)(F)F)c2)nc2c1C(=O)N(c1cnn(CC(F)F)c1)C2(C)C , write its Vd.
Ans: 1.8

----------
Molecular target: CYP2C8 (Homo sapiens, UniProt P10632)
Sequence (P10632 1-490): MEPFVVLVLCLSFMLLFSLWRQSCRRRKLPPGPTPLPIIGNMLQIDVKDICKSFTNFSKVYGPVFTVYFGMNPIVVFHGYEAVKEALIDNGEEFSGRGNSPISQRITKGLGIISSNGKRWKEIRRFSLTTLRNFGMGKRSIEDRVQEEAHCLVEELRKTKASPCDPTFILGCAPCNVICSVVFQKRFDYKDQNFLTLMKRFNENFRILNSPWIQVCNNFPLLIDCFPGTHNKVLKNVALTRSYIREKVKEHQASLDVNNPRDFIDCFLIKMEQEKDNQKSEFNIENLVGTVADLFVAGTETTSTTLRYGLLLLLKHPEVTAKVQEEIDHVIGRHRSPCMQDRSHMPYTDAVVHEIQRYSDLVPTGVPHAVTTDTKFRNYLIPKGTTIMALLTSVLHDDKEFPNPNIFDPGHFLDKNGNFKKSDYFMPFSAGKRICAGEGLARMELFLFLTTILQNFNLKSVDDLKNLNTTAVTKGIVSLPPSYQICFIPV
recorded.endpoint: pIC50
Worth noting: pIC50 values are minus log10 of concentrations stated in mol/L.

Q: For Cc1cc(-c2cncc([C@@H](O)C(F)(F)F)c2)nc2c1C(=O)N(c1cnn(CC(F)F)c1)C2(C)C [Compound 1] , write its pIC50.
Ans: 5.15

----------
Test: Permeability in MDCK wild-type cell line
Type: in vitro ADME, canine
Conditions: dog, MDCK, MDCK-WT, B > A
recorded.endpoint: recovery at 1 h, 1 μM (%)
Give the number; % is assumed, so skip it.

Q: For Cc1cc(-c2cncc([C@@H](O)C(F)(F)F)c2)nc2c1C(=O)N(c1cnn(CC(F)F)c1)C2(C)C , write its recovery at 1 h, 1 μM.
Ans: 93

----------
System: MCP-1 stimulated pAkt in THP-1 cells (PI3K-gamma)
Assay: MCP-1 Stimulated pAkt in THP-1 Cells
Assay type: cell-based
Conditions: Homo sapiens; THP-1/MCP-1/pAkt, PI3K-gamma dependent; read-out: IC50 Average ± Standard Deviation
recorded.endpoint: IC50 (nM)
Give the number; nM is assumed, so skip it.

Q: For Cc1cc(-c2cncc([C@@H](O)C(F)(F)F)c2)nc2c1C(=O)N(c1cnn(CC(F)F)c1)C2(C)C , write its IC50.
Ans: 240

----------
Test: Tissue Distribution in Rats
Type: in vivo, rat
Details: male, spleen; rat, 5 mg/kg oral, 7 hr post dose; read-out: Tissue to Plasma Ratio, Spleen
recorded.endpoint: Kp at 7 h
// print number alone

Q: For Cc1cc(-c2cncc([C@@H](O)C(F)(F)F)c2)nc2c1C(=O)N(c1cnn(CC(F)F)c1)C2(C)C , write its Kp at 7 h.
Ans: 0.81
